Form field: AUC (one value per entry).
Test: Pharmacokinetics in beagle dogs
Type: in vivo
Conditions: male, plasma, po; beagle dog, ig (intragastric), 3 mg/kg
Protocol: Experimental Example 5: The Pharmacokinetics of the Compound According to the Present Invention in Beagle Dogs 9 healthy adult male beagle dogs (three for each administration route of each compound) were fasted overnight (>12 h) before gavage, with free access to water; 4 hours after administration, rats could take food, and were administered via tail vein injection and gastric lavage, respectively. […] The plasma concentration of compounds was determined by LC-MS/MS method. […]
Write the value in ng·h/mL as a bare number.

Previously resolved entries follow.
[[record]]
chem_smiles = "C[C@@H](Nc1ccc(Cl)nc1C(=O)O)c1cc(F)cc2c(=O)n(C)c(-c3ccc(F)cn3)nc12"
numeric_value = 3710

[[record]]
chem_smiles = "Cc1cc([C@@H](C)Nc2ccc(Cl)nc2C(=O)O)c2nc(-c3ccc(F)cn3)n(C)c(=O)c2c1"
numeric_value = 4910


Now look at this one.
Given Cc1cc([C@@H](C)Nc2ccc(Cl)nc2C(=O)O)c2nc(-c3ccc(F)cc3)n(C)c(=O)c2c1 , state its recorded AUC.
760

###

test: Pharmacokinetics in rats; format: in vivo, SD rats; settings: male, SD, plasma, po; rat, ig (intragastric), 3 mg/kg
Measured AUC of individual entries
Give a bare numeral; the unit ng·h/mL is implied.

[[record]]
compound = "C[C@@H](Nc1ccc(Cl)nc1C(=O)O)c1cc(F)cc2c(=O)n(C)c(-c3ccc(F)cn3)nc12 [Compound 74]"
measured_quantity = "AUC"
numeric_value = 1330

[[record]]
compound = "Cc1cc([C@@H](C)Nc2ccc(Cl)nc2C(=O)O)c2nc(-c3ccccc3)n(C)c(=O)c2c1 [Compound 115]"
measured_quantity = "AUC"
numeric_value = 2360

[[record]]
compound = "Cc1cc([C@@H](C)Nc2ccc(Cl)nc2C(=O)O)c2nc(-c3ccc(F)cn3)n(C)c(=O)c2c1 [Compound 66]"
measured_quantity = "AUC"
numeric_value = 4040


AUC lookup needed for Cc1cc([C@@H](C)Nc2ccc(Cl)nc2C(=O)O)c2nc(-c3ccc(F)cc3)n(C)c(=O)c2c1 [Compound 65] , thanks.
3430

###

Experiment: Pharmacokinetics in beagle dogs
Format: in vivo
Conditions: male, plasma, po; beagle dog, ig (intragastric), 3 mg/kg
Experimental: Experimental Example 5: The Pharmacokinetics of the Compound According to the Present Invention in Beagle Dogs 9 healthy adult male beagle dogs (three for each administration route of each compound) were fasted overnight (>12 h) before gavage, with free access to water; 4 hours after administration, rats could take food, and were administered via tail vein injection and gastric lavage, respectively. […] The plasma concentration of compounds was determined by LC-MS/MS method. […]
measured quantity: half-life (h)
Provide the reading as a plain figure in h.

Check out these entries, answers already filled in.
[[record]]
compound = "C[C@@H](Nc1ccc(Cl)nc1C(=O)O)c1cc(F)cc2c(=O)n(C)c(-c3ccc(F)cn3)nc12 [Compound 74]"
numeric_value = 4.11

[[record]]
compound = "Cc1cc([C@@H](C)Nc2ccc(Cl)nc2C(=O)O)c2nc(-c3ccc(F)cc3)n(C)c(=O)c2c1 [Compound 65]"
numeric_value = 2.13


Could you now look at the following compound, please?
Reported half-life for Cc1cc([C@@H](C)Nc2ccc(Cl)nc2C(=O)O)c2nc(-c3ccc(F)cn3)n(C)c(=O)c2c1 [Compound 66] : what is it?
3.81
